Assay: xn = mol fraction of the nth substance listed
Details: 298.15 K; 101 kPa; x2 = 0.975
Metric: electrical conductivity

* CCCC[n+]1ccn(C)c1.[Cl-] + O | 4.98 S/m
* CCCC[n+]1ccn(C)c1.[Cl-] + CCO | 0.52 S/m
* CCCC[n+]1ccn(C)c1.[Cl-] + CO | 2.24 S/m
* CCCC[n+]1ccn(C)c1.[Cl-] + CC#N | 1.3 S/m

----------
Test: xn = mol fraction of the nth substance listed
Conditions: 298.15 K; 101 kPa; x2 = 0.975
Metric: viscosity (mPa·s)

• CCCC[n+]1ccn(C)c1.[Cl-] + O = 1.52
• CCCC[n+]1ccn(C)c1.[Cl-] + CCO = 1.29
• CCCC[n+]1ccn(C)c1.[Cl-] + CC#N = 0.46
• CCCC[n+]1ccn(C)c1.[Cl-] + CO = 0.68
